system: CCRF-CEM leukemia; assay: NCI-60 one-dose screen, 48 h; settings: 10 µM unless noted
This is part of a sample that, as a whole, favours compounds with a hit. Of some 83,000 tested, about 20% had one in any assay. Calls of active or inactive are those of the source. The calls were made as follows: active = growth percent below 10; inactive = the rest.
API: response.call in active, inactive

Here's what some known entries look like.
[[record]]
compound = "COc1ccc(/C=C(\\C#N)C(=O)N2c3ccccc3Sc3ccc(SC)cc32)cc1F"
labelvalue = "inactive"

[[record]]
compound = "COc1cc2nc(Cl)nc(Nc3cccc(C4=Nc5c(N)nc(N)nc5NC(c5ccccc5)C4)c3)c2cc1OC (centres undefined)"
labelvalue = "inactive"

[[record]]
compound = "COc1cc(OC)cc(C(=O)Nc2cccc(C#Cc3cccc4[nH]nc(N)c34)c2)c1"
labelvalue = "inactive"

[[record]]
compound = "COc1ccc2c(c1)c(CC(=O)[Se]CC#N)c(C)n2C(=O)c1ccc(Cl)cc1"
labelvalue = "active"


Now for another entry.
Prompt line: Field: outcome | Entry: CN1CCN(c2ccc(/C=N/n3cnc4oc(-c5ccccc5)cc4c3=N)cc2)CC1
Response line: inactive

These data points were gathered from PubChem BioAssay (NCI).
